FYI, the data here is from the DeepSol protein solubility set.

# Assay Remarks: soluble on expression in E. coli; label from the status in PepcDB or PDB records
Observable: soluble on expression in E. coli

Would you please look over these solved cases?
GPVPTPPDNIQVQENFNISRIYGKWYNLAIGSTCPWLKKIMDRMTVSTLVLGEGATEAEISMTSTRWRKGVCEETSGAYEKTDTDGKFLYHKSKWNITMESYVVHTNYDEYAIFLTKKFSRHHGPTITAKLYGRAPQLRETLLQDFRVVAQGVGIPEDSIFTMADRGECVPGEQEPEPILIPRV = soluble
MGSDKIHHHHHHMQIKEFLISRRSEVVNNFYDNYYTQTDEYKLRLSAGEDEQSIRSLSTASCGMIIDVITGVKERDFENIGKRRFNDKTDIRKIHQHMSEIDKFIINSLLKWKETEDVFYTDADIIQFMLEIKDTLASIQQQLLEGFMQENRNQVMAQRKEIIQLSTRIIPITDSIGVLPIVGSLDDDRGYFMKEKAIESADKLNLDFIVIDFSSAVLKDDFATKHMEDMIQSFKLIGLIPILSGMQPSFAQRTIQVGSNISKLQSFGSLEQALTNLGL = not soluble
MGSDKIHHHHHHMKISLGPLLYCWEKQQVIDFYQQVANSQIPLVYLGEAVCSRRRELKWGDYLELAKMLKSAGKDVVLSTLALIEAPSEYTELKRQVDNGEFMIEANDMAAVYLAKEHKQPFVCGASINNYNRASLDILQRLGMQRFVMPVELSKTWLSQVVDKKPSFEVEVLGHGYLPLAHSARCFTARHSQLAKDSCETVCRQYSKGLLAQTQEAQPLLRLNGIQTQSASCVDLRSEISAMVKIGVDVFRVSPSSLACIAKADALVEALNSGAMDAQYPLSDEHCNGYWFGEAGLKSLS = not soluble
MDNARIDLRSKYYVKPKADHPWLTRRTQSHQQVKPPKLPKKKPDPDKKD = not soluble
MKIIKRSGSEVTFDISKIMAAVSKANMEVVHSERLSEEQIETISNNVESICKEMNRSLSVEEIQDLVENQIMNLRAFAVARKYITYRYKRALVRKSNST = not soluble

For record `MAHHHHHHMLPILLSTLEKDESATLRERAGMALELLVREAQTQRLLLGGGSSEDAPLSTLAGKQTAPTPHLAAILASLRDESDEVVVAALRVVLACHMAHNAFSVTAALVQGGLIPVLIDLIQSTNTMTQMVACCATRQLFQVKEAHVELLKLGIVATLTKAIIKAEAVALVAEAAEVASLIAEYAQGRRDAVACGTLASLLPHLHNANLTLRVAVYSAAAQITVLEAAKVQAMEVGYPEQLVGELAREDERDVLMHMLRLIYNLAEWPTARVTLRECLPRIAELLQIAEGDEGVMFALSQADRILKKKVFPV` the listed soluble on expression in E. coli is not soluble

For record `MAHHHHHHMQFVSDLGLELSVFVCHLYAKYSEEPLKAFHELVLRTRSSCCGSDDSSNYLSLATLSGTQWYQDMTKRYASLRQRLRGERDNDVQEAREVTLSLYPQGCRVSEYADAIVTSAAMLTSNIPSTVLERFASCRVKDLNEKGCVSISADELASDLIERPVLDSFTPSRWWESDKTAPSSSLKDGLVAVKSIGLRVQPVEILIFYTYNGRPRRRFIPLDGLLHENSPIAPLLRRLVRSHGMLVSESQLRSYLQRLQELMRKSVESHASTVKPEGPLQPQFDWKQQIGYSDNAPAAHNTGEEEQHMTSAKTGEPEVNKADVGLLYRDPEAALKNVDLNDADDITLQEFKAKMNEGFMQNALRPGDPGYVYDKRLDVNPTERSEWDDSD` the listed soluble on expression in E. coli is not soluble
